Value source: ChEMBL document CHEMBL3507680

assay: Human HepG2 cell viability assay in 384 well format; format: toxicity, cell-based; design: dose 125 nL, time 70.5 hour; concentration not given beside the values; settings: HepG2 cells, read-out: Inhibition
# cytotoxicity at 70.5 h annotations
Please give a number only; it is taken to be in %.

# example entries with known answers
Indicate the recorded cytotoxicity at 70.5 h value for this molecule: CNC(=O)CCc1cc(C2CCCCN2C(C)C)nc(C)n1 (stereo unspecified)
-1.6

Indicate the recorded cytotoxicity at 70.5 h value for this molecule: Cc1ccccc1OCC(=O)N1CCCC(CNS(C)(=O)=O)C1 (stereo unspecified)
-5.65

Indicate the recorded cytotoxicity at 70.5 h value for this molecule: Cc1noc([C@H]2C[C@@H]3CCN(C(=O)c4cccn4C)C[C@H]3O2)n1
-3.46

Indicate the recorded cytotoxicity at 70.5 h value for this molecule: CCCN1CCC(N(Cc2ncc(C)o2)C(C)=O)C1 (stereo unspecified)
-8

Indicate the recorded cytotoxicity at 70.5 h value for this molecule: Cc1nc(OCC(=O)N2CCCC2)cc(-n2cccn2)n1
-7.15

Indicate the recorded cytotoxicity at 70.5 h value for this molecule: Cc1cc(CN2C[C@H]3CCC[C@@]3(COCC(=O)N3CCCC3)C2)no1
-4.89

Indicate the recorded cytotoxicity at 70.5 h value for this molecule: COc1ccc(CS(=O)(=O)CC(=O)NCC2CC2)cc1F
-3.56

Indicate the recorded cytotoxicity at 70.5 h value for this molecule: CN1CCCC2(CCN(S(=O)(=O)c3c(Cl)nc4sccn34)C2)C1=O (stereo unspecified)
-5.17

Indicate the recorded cytotoxicity at 70.5 h value for this molecule: O=C(NCCc1cc(=O)[nH]cn1)c1[nH]nc2c1CCCC2
-5.79

Indicate the recorded cytotoxicity at 70.5 h value for this molecule: CC(=O)Nc1ccc(OCc2noc(C(=O)N3CCCCCC3)n2)cc1
-21.4

Here is another molecule to look at.
Indicate the recorded cytotoxicity at 70.5 h value for this molecule: COc1ccc(F)c(-c2cc(O)nc(N)n2)c1
-9.12

====

experiment: Human HepG2 cell viability assay in 384 well format; assay type: toxicity, cell-based; design: dose 125 nL, time 70.5 hour; concentration not given beside the values; details: HepG2 cells, read-out: Inhibition
# cytotoxicity at 70.5 h annotations
Please give a number only; it is taken to be in %.

# example entries with known answers
Indicate the recorded cytotoxicity at 70.5 h value for this compound: CCc1ccc(NC(=O)N2Cc3c(CN(C)C)nn(C)c3C2)cc1
-2.56

Indicate the recorded cytotoxicity at 70.5 h value for this compound: Cn1c(CC(=O)O)c(Sc2ccccc2)c2ccccc21
-0.644

Indicate the recorded cytotoxicity at 70.5 h value for this compound: O=C(c1cncs1)N1CCOC(c2cc(CCO)[nH]n2)C1 (centres undefined)
-7.42

Here is another compound to look at.
Indicate the recorded cytotoxicity at 70.5 h value for this compound: CC(=O)NCc1nc(Cc2cccc(Cl)c2)nn1C1CCN(C)CC1
6.7

====

# cytotoxicity at 70.5 h annotations
experiment: Human HepG2 cell viability assay in 384 well format; assay type: toxicity, cell-based; parameters: dose 125 nL, time 70.5 hour; concentration not given beside the values; conditions: HepG2 cells, read-out: Inhibition
Please don't drop the unit; write it after the number.

Indicate the recorded cytotoxicity at 70.5 h value for this compound: O=C(CN1CCC(c2cccc(F)c2)C1)NCc1ccco1 (stereo unspecified)
59.3%

Indicate the recorded cytotoxicity at 70.5 h value for this compound: CC(=O)N1CCC(c2noc(C3CCC(=O)N3)n2)CC1 (stereo unspecified)
16.7%

Indicate the recorded cytotoxicity at 70.5 h value for this compound: Cn1ncc2c(=O)[nH]c(CN(Cc3ccco3)C3CC3)nc21
-16.2%

Continuing:
Indicate the recorded cytotoxicity at 70.5 h value for this compound: Cn1cnc(S(=O)(=O)NCCCN2CCCCCC2=O)c1Cl
0.779%

Indicate the recorded cytotoxicity at 70.5 h value for this compound: CC1CCN(Cc2ccccc2CNC(=O)C2CNC(=O)N2)CC1 (stereo unspecified)
-4.5%

Indicate the recorded cytotoxicity at 70.5 h value for this compound: Cc1cc(NC(=O)N2CCC[C@@H]2CO)nn1-c1cccc(Cl)c1
-8.23%
